Measured values drawn from patent US20100272750A1 for this set.

Biological target: HLA DRB1*1501 (human)
Assay: competition with 125I probe peptide, purified HLA
measurement.label: pIC50
pIC50 here: minus log base 10 of the concentration, concentration in moles per litre.

Worked examples follow.
Ask | Record request: pIC50 value, item TGRCIACWRRPRTET (modifications not checked) [HPV31.E6.132 HTL epitope]
Reply | 7.08

Ask | Record request: pIC50 value, item WKHMRLECAIYYKAR (modifications not checked) [HPV16.E2.033 HTL epitope]
Reply | 5.86

Ask | Record request: pIC50 value, item DWVMAIFGVNPTVAEGF (modifications not checked) [HPV45.E1.228 HTL epitope]
Reply | 6.97

Next:
Ask | Record request: pIC50 value, item QRFHNIRGRWTGRCM (modifications not checked) [HPV16.E6.130 HTL epitope]
Reply | 4.76

Ask | Record request: pIC50 value, item FHSIAGQYRGQCNTC (modifications not checked) [HPV45.E6.127 HTL epitope]
Reply | 6.24

Ask | Record request: pIC50 value, item WKHIRLECVLMYKAR (modifications not checked) [HPV31.E2.033 HTL epitope]
Reply | 6.87
